Origin of measurements: patent US20240158392A1

Target: UniProt:Q9H0K1
Test: SIK2 Enzymatic Assay High Version 2 (High ATP)
Assay type: biochemical
Settings: enzyme 6 nM, 6 mM ATP and 400 μM HDAC5tide (each 2× final concentration); 30 minutes pre-incubation, 2 hours; ADP-Glo Max luminescence; read-out: SIK2 high ATP IC50 (μM) (Test Example 2)
Readings of IC50 for the listed compounds
measured-attribute: IC50

• Cc1cc(-c2ccn3nc(Nc4cc(C)nc(C)n4)cc3c2)c(OCCC2(C#N)COC2)cn1 = 0.01 µM
• CC(=O)O[C@H]1CC[C@H](Oc2nnc(C)cc2-c2ccn3nc(Nc4cc(C)nc(C)n4)cc3c2)CC1 = 0.0238 µM
• Cc1cc(-c2ccn3nc(Nc4cc(C)nc(C)n4)cc3c2)c(OC[C@H]2C[C@H](C#N)C2)cn1 = 0.0179 µM

====

Target: UniProt:Q9H0K1
Assay: SIK2 Enzymatic Assay High Version 2 (High ATP)
Assay type: biochemical
Description: All steps were performed at room temperature. Compounds were pre-plated onto an assay plate using an Echo acoustic dispenser (Labcyte, E550 or E555) at 80 nL per well. […] The plate is then read on the Pherastar (BMG Labtech) using a luminescence read. […]
pIC50: −log10 of the molar value.
measured-attribute: pIC50

• CN1C[C@H]2C[C@@H]1C[C@H]2Oc1cnc(C#N)cc1-c1ccn2nc(NC(=O)C3CC3)cc2c1 [Example 13] = 6.52
• Cc1cc(-c2ccn3nc(NC(=O)C4CC4)cc3c2)c(O[C@H]2CC[C@H](O)C2)cn1 (stereo in doubt) [Example 183] = 7.46
• Cc1cc(-c2ccn3nc(NC(=O)C4CC4)cc3c2)c(O[C@H]2C[C@H](N)C2)cn1 [Example 170] = 7.89

====

Target: SIK2 (Homo sapiens)
Experiment: SIK2 Enzymatic Assay Version 1 (ADP Glo)
Assay type: biochemical
Settings: enzyme 0.6 nM, 160 μM ATP and 140 μM HDAC5tide (each 2× final concentration); 30 minutes pre-incubation, 4 hours; ADPGlo luminescence; read-out: SIK2 ADP Glo IC50 (μM) (Test Example 1)
Attribute: IC50
measured-attribute: IC50

• COc1ccncc1-c1ccn2nc(NC(=O)C3CC3)cc2c1 = 0.198 µM
• CN1[C@@H]2COC[C@H]1CC(Nc1cnc(C#N)cc1-c1ccn3nc(NC(=O)C4CC4)cc3c1)C2 (stereo partly drawn) = 0.00384 µM
• CC(=O)N1CCC(COc2cnc(C#N)cc2-c2ccn3nc(NC(=O)C4CC4)cc3c2)CC1 = 0.00492 µM
• Cc1cc(-c2ccn3nc(Nc4ccn(C)n4)cc3c2)c(O[C@H]2CC[C@H](O)CC2)cn1 = 0.00236 µM
• Cn1ccc(Nc2cnc(C#N)cc2-c2ccn3nc(NC(=O)C4CC4)cc3c2)n1 = 0.242 µM
• N#Cc1cc(-c2ccn3nc(NC(=O)C4CC4)cc3c2)c(OC2(C(F)(F)F)CCNCC2)cn1 = 0.152 µM

====

Molecular target: SIK2 (Homo sapiens, UniProt Q9H0K1)
Sequence (Q9H0K1 whole entry, species assumed): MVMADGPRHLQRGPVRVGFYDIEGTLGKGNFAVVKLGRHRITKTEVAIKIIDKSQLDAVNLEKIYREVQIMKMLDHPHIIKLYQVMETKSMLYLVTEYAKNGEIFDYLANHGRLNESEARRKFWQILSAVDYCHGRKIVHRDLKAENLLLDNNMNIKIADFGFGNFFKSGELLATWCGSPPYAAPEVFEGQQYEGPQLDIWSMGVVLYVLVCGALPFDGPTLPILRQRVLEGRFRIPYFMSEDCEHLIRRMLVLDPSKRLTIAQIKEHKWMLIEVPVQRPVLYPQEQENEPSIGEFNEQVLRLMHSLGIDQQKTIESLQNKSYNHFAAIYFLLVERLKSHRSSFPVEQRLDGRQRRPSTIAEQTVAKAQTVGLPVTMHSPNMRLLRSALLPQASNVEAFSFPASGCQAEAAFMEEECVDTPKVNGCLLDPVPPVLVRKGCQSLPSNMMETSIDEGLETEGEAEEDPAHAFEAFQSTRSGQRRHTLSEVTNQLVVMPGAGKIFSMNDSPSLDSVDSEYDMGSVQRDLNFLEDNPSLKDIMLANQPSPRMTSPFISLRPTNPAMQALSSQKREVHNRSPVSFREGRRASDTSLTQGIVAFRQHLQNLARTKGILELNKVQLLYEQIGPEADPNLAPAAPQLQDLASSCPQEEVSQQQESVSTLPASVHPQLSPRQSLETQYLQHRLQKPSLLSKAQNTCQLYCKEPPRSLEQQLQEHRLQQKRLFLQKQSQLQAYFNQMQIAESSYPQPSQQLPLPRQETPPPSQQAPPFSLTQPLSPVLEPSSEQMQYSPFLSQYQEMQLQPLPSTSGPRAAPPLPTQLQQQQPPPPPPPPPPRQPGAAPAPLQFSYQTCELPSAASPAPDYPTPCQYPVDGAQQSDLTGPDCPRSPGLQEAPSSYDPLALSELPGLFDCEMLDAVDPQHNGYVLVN
Experiment: SIK2 Enzymatic Assay High Version 2 (High ATP)
Format: biochemical
Entries and their log10 IC50 values follow.
measured-attribute: log10 IC50 (log10 of the value in nM)

* N#Cc1cc(-c2ccn3nc(NC(=O)C4CC4)cc3c2)c(OC[C@H]2C[C@H](N)C2)cn1 [Example 591] | 0.90
* Cc1cc(-c2ccn3nc(Nc4cc(F)n(C)n4)cc3c2)c(O[C@H]2C[C@H]3COC[C@@H](C2)N3)cn1 [Example 397] | 0.12
* CC#Cc1cc(-c2ccn3nc(NC(=O)C4CC4)cc3c2)c(O[C@@H]2C[C@H]3COC[C@@H](C2)N3)cn1 [Example 439] | 0.01
* N#Cc1cc(-c2ccn3nc(NC(=O)C4CC4)cc3c2)c(O[C@@H]2CCNCC2(F)F)cn1 [Example 15] | 1.60
* N#Cc1cc(-c2ccn3nc(NC(=O)C4CC4)cc3c2)c(OC2CC3(CNC3)C2)cn1 [Example 587] | 1.94
* CN1CCC(Oc2cnc(C#N)cc2-c2ccn3nc(NC(=O)C4CC4)cc3c2)(C(F)(F)F)CC1 [Example 10] | 3.69
